Assay: chemical genetic growth profiling, strain panel (AID 1159580);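 note: tested at 20 µM; growth read once vehicle control cultures reached saturation at 30 °C; 1 = growth at the plate median or of vehicle wells; lower values mean less growth of the strain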
Settings: S. cerevisiae deletion strains, growth OD, locus YLR027C, strain aat2, active compounds read low
Among all 5,500 compounds or so, about 2,000 (36%) were called active. Roughly 18% stayed inconclusive and do not appear here. Some of the results follow.
quantity: normalized growth
In your answer, state the number alone without any accompanying words.

Name the recorded normalized growth for CC(=O)Nc1c(I)cc(I)c(C(=O)O)c1I .
0.981

Name the recorded normalized growth for CNC(=O)N(C)c1nnc(C(C)(C)C)s1 .
0.973

Name the recorded normalized growth for CC(=O)O[C@H]1CC2CCC3C(CC[C@@]4(C)C3C[C@H]([N+]3(C)CCCCC3)[C@@H]4OC(C)=O)[C@@]2(C)C[C@@H]1N1CCCCC1 (stereo not given in full) .
1.02

Name the recorded normalized growth for Cc1cc(O)c2c(c1)C(=O)c1cccc(O)c1C2=O .
1.01

Please look at the following compound next.
Name the recorded normalized growth for COc1ccccc1OCC(O)COC(N)=O (stereo not given) .
0.997

---

Listed here are compounds together with their documented normalized growth.
Assay: chemical genetic growth profiling, strain panel (AID 1159580);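 note: tested at 20 µM; growth read once vehicle control cultures reached saturation at 30 °C; 1 = growth at the plate median or of vehicle wells; lower values mean less growth of the strain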
Conditions: S. cerevisiae deletion strains, growth OD, locus YJL154C, strain vps35, active compounds read low
Among all 5,500 compounds or so, about 2,000 (36%) were called active. Roughly 18% stayed inconclusive and do not appear here. This is one part of the list.

Name the recorded normalized growth for CC(C)N1C(=O)c2ccccc2NS1(=O)=O .
0.963 (inactive)

Name the recorded normalized growth for CC(=O)OCC1=C(C(=O)O)N2C(=O)[C@@H](NC(=O)CSc3ccncc3)[C@H]2SC1 .
1.02 (inactive)

Name the recorded normalized growth for COc1ccc(-c2c(O)c3c(OC)c4c(cc3oc2=O)OC(C)(C)C=C4)cc1 .
0.958 (inactive)

Name the recorded normalized growth for CC(=O)OC1CCC23CC1(C)CCC2C(C)(C)CC3OC(C)=O (configuration not stated) .
1 (inactive)

Name the recorded normalized growth for CC(=O)Oc1c(C)c(C)c2c(c1C)CCC(C)(CCCC(C)CCCC(C)CCCC(C)C)O2 (configuration not stated) .
0.989 (inactive)

Name the recorded normalized growth for O=C1NS(=O)(=O)c2ccccc21 .
1.02 (inactive)

Name the recorded normalized growth for O=C(c1ccccc1)c1ccc2n1CCC2C(=O)O (configuration not stated) .
0.975 (inactive)

---

Listed here are compounds together with their documented normalized growth.
Assay: chemical genetic growth profiling, strain panel (AID 1159580);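 note: tested at 20 µM; growth read once vehicle control cultures reached saturation at 30 °C; 1 = growth at the plate median or of vehicle wells; lower values mean less growth of the strain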
Conditions: S. cerevisiae deletion strains, growth OD, locus YPL240C, strain hsp82, active compounds read low
Screen size: about 5,500 compounds; about 2,000 (36%) were called active. Another 18% or so got no clear call; they are omitted. This is one part of the list.
In your answer, state the number alone without any accompanying words.

Guide cases for normalized growth, answers given:
Name the recorded normalized growth for COc1ccc(CC(=O)c2ccc(O)cc2O)cc1 .
0.978

Name the recorded normalized growth for COc1cc(Cc2cnc(N)nc2N)cc(OC)c1OC .
1.01

Name the recorded normalized growth for C=C(C)C1Cc2c(ccc3c(=O)c4c(oc23)COc2cc(OC)c(OC)cc2-4)O1 (stereo unspecified) .
0.976

***
Name the recorded normalized growth for O=C1C=CC(=O)c2c(O)cccc21 .
0.973

Name the recorded normalized growth for COc1ccc([C@@H](C)C(=O)c2ccc(O)cc2O)cc1 .
0.965

Name the recorded normalized growth for CC12CCC(O)CC1CCc1ccccc12 (stereo unspecified) .
0.991

Name the recorded normalized growth for CC(C)N1C(=O)c2ccccc2NS1(=O)=O .
0.968

Name the recorded normalized growth for O=C1C=CC(=O)c2ccccc21 .
0.0586

Name the recorded normalized growth for CN1CCCCC1c1ccc(-c2cccnc2)nc1 (stereo unspecified) .
0.981

Name the recorded normalized growth for COc1cc(O)ccc1C(C)=O .
1.01

Name the recorded normalized growth for O=C1NS(=O)(=O)c2ccccc21 .
1.01
